PROCEDURE SUMMARY: Liver Microsome Stability Assay (rat)
RECORDED CONDITIONS: rat liver microsomes, with NADPH, 1.0 uM compound
READOUT KIND: Liver Microsome Stability (Multiple Species): Rat - % Remaining after 30 min w/NADPH (%)
# value in %; strip the unit string

A selection of reference data follows.
Record O=C(Nc1nc(/C=C/c2c[nH]cn2)cs1)c1cccn1Cc1ccnc(F)c1 , field Liver Microsome Stability (Multiple Species): Rat - % Remaining after 30 min w/NADPH: 27.3

Record O=C(Nc1nc([C@H]2CCCN2c2cccnn2)cs1)c1cccn1Cc1ccncc1 , field Liver Microsome Stability (Multiple Species): Rat - % Remaining after 30 min w/NADPH: 4.6

Record N#CCCCCn1cccc1C(=O)Nc1nc([C@H]2CCCN2c2ccccc2)cs1 , field Liver Microsome Stability (Multiple Species): Rat - % Remaining after 30 min w/NADPH: 7.64

Moving on to another compound below.
Record O=C1CCc2cc(N3CCC[C@@H]3c3csc(NC(=O)c4cccn4Cc4ccncc4)n3)ccc2N1 , field Liver Microsome Stability (Multiple Species): Rat - % Remaining after 30 min w/NADPH: 0.05
